Listed here: items and their measured melting point.

Look over these answered cases.
COc1cc2c(Oc3cccc(NS(=O)(=O)c4cccs4)c3)ccnc2cc1OCCCN1CCN(C)CC1 ... 188 to 189 °C
COc1cc2c(Oc3ccc(NS(=O)(=O)c4cccc(OC(F)F)c4)cc3F)ccnc2cc1OCCCN1CCCC(C)C1 (centres unmarked) ... 99 to 100 °C
COc1cc2c(Oc3ccc(NS(=O)(=O)c4cccs4)cc3F)ccnc2cc1OCCCN1CCCCC1C (centres unmarked) ... 117 to 119 °C
COc1cc2c(Oc3ccc(NS(=O)(=O)c4cc(Cl)ccc4Cl)cc3Cl)ccnc2cc1OCCCN1CCN(C)CC1 ... 144 to 145 °C
COc1cc2c(Oc3cc(NS(=O)(=O)c4ccccc4C(F)(F)F)ccc3F)ccnc2cc1OCCCN1CCC(C)CC1 ... 175 to 177 °C
COc1cc2c(Oc3ccc(NS(=O)(=O)c4ccccc4Cl)cc3F)ccnc2cc1OCCCN1CCN(C)CC1 ... 96 to 98 °C

Report melting point for `COc1cc2c(Oc3ccc(NS(=O)(=O)c4c(Cl)cccc4Cl)cc3C)ccnc2cc1OCCCN1CCC(C)CC1` please.
209 to 210 °C

Entry COc1cc2c(Oc3ccc(NS(=O)(=O)c4ccc(F)cc4F)cc3F)ccnc2cc1OCCCN1CCCC(C)C1 (centres unmarked) : reported melting point = ?
118 to 120 °C

What measured melting point goes with `COc1cc2c(Oc3ccc(NS(=O)(=O)c4ccccc4C(F)(F)F)cc3F)ccnc2cc1OCCCCN1CCOCC1` ?
102 to 104 °C

So what does the record say about melting point for `COc1cc2c(Oc3ccc(NS(=O)(=O)c4cc(Cl)ccc4Cl)cc3F)ccnc2cc1OCCN1CCOCC1` ?
194 to 196 °C

Endpoint output: melting point of COc1cc2c(Oc3ccc(NS(=O)(=O)c4ccccc4[N+](=O)[O-])cc3F)ccnc2cc1OCCCN1CCCC(C)C1 (centres unmarked) . Value?
136 to 138 °C

# melting point lookup, item `COc1cc2c(Oc3ccc(NS(=O)(=O)c4ccccc4F)cc3F)ccnc2cc1OCCN1CCOCC1`
168 to 169 °C

Requested read-out: melting point. Entry: `COc1cc2c(Oc3ccc(NS(=O)(=O)c4ccccc4C(F)(F)F)cc3C)ccnc2cc1OCCCN1CCC(C)CC1`
165 to 167 °C

Would you mind telling me what melting point value was observed for `COC(=O)c1sccc1S(=O)(=O)Nc1ccc(Oc2ccnc3cc(OCCCN(C)C)c(OC)cc23)c(F)c1` ?
80 to 82 °C

Form field: reported melting point of `COc1cc2c(Oc3cccc(NS(=O)(=O)c4cc(Cl)ccc4Cl)c3)ccnc2cc1OCCCN1CCN(C)CC1`
111 to 113 °C

Give its melting point value. Item: `COc1cc2c(Oc3ccc(NS(=O)(=O)c4ccccc4C(F)(F)F)cc3F)ccnc2cc1OCCCNC(=O)OC(C)(C)C`
80 to 82 °C

Which melting point reading was recorded for the compound `COc1cc2c(Oc3ccc(NS(=O)(=O)c4ccccc4C)cc3F)ccnc2cc1OCCCN1CCN(C)CC1` ?
73 to 75 °C
